These measurements were taken from patent US20240141072A1.

Target: T1, biotinylated human DLL3 protein expressed as a human IgG1 fusion protein (human, UniProt Q9NYJ7 27-492, limits assumed, biotinylated)
T1 sequence: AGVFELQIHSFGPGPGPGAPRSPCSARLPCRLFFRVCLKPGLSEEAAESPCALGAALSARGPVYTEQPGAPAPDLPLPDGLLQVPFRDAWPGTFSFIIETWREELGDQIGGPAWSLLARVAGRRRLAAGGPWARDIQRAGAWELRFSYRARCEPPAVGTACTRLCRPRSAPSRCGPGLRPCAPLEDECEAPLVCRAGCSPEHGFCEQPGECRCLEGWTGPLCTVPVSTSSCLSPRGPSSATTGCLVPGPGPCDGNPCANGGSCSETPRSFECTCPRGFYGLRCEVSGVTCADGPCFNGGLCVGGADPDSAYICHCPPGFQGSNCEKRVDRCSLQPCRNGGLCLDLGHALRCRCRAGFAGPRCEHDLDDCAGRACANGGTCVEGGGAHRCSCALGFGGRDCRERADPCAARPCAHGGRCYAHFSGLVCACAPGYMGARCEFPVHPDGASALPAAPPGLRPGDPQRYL
Experiment: Octet BLI, single 50 nM
Reported Kd values follow for various binders

{"binder": "1B011 anti-DLL3 trispecific protein (other, not shown: linker 1808, anti-albumin sdAb, linker 1808, anti-CD3 fragment, His6 1819) EVQLVESGGGLVQPGGSLTLSCVASGSTSRINAMGWYRRAPGKQRELVAGISSDGSKVYADSVKGRFTISRDNAKNSVYLQMNSLRAEDTAVYYCYYFRTVYGSSMRYWGQGTLVTVSS", "Kd": "5.7 nM"}
{"binder": "3A01 anti-DLL3 trispecific protein (other, not shown: linker 1808, anti-albumin sdAb, linker 1808, anti-CD3 fragment, His6 1819) EVQLVESGGGLVQPGGSLTLSCAASGSSVKFLSMAWYRQAPGKKRELVAGISADGSTDYIDSVKGRFTISRDNAKNSVYLQMNSLRAEDTAVYYCYAYRWTRRYTYWGQGTLVTVSS", "Kd": "16 nM"}
{"binder": "2G04 anti-DLL3 trispecific protein (other, not shown: linker 1808, anti-albumin sdAb, linker 1808, anti-CD3 fragment, His6 1819) EVQLVESGGGLVQPGGSLTLSCVASGSTSSINAMGWYRRAPGKQRELVAGISSDGSLVYADSVKGRFTISRDNAKNSVYLQMNSLRAEDTAVYYCYYFRILSGSSMRYWGQGTLVTVSS", "Kd": "11 nM"}
{"binder": "1D01 anti-DLL3 trispecific protein (other, not shown: linker 1808, anti-albumin sdAb, linker 1808, anti-CD3 fragment, His6 1819) EVQLVESGGGLVQPGGSLTLSCVASGSTSDINAMGWYRRAPGKQRELVAGISSDKSKVYADSVKGRFTISRDNAKNSVYLQMNSLRAEDTAVYYCYYFRTVRGSSMRYWGQGTLVTVSS", "Kd": "5.8 nM"}
